# Test system: A498 renal
# testSummary: NCI tumour cell line growth inhibition, 48 h
experimentalReadout: GI50

As a guide, the following entries are already answered.
| molecule | experimentalReadout | assayValue |
| --- | --- | --- |
| Cc1ccc(Oc2nc3ccccc3cc2-c2nnc(Cn3c(COc4ccccc4)nc4ccccc43)o2)cc1 | GI50 | 409 nM |
| COc1ccc(-c2ccccc2)cc1-c1c(Nc2cc(Cl)cc(Cl)c2O)c(=O)c1=O | GI50 | 726 nM |
| COC(=O)[C@@H]1CCCN1C(=O)[C@H]1CCCN1C(=O)[C@@H](Cc1c[nH]c2ccccc12)NC(=S)Nc1cc(C(F)(F)F)cc(C(F)(F)F)c1 | GI50 | 1010 nM |
| O=C1OCC2=C1C(c1cccc(C(F)(F)F)c1)c1cc3c(cc1N2CCO)CCC3 (centres undefined) | GI50 | 80.4 nM |
| CCCCCCN1CCN(Cc2ccc(N(CC)CC)cc2)C(=O)C1=O | GI50 | 973 nM |
| COc1ccc2c(c1)C(=O)c1c-2n(CCCN2CCOCC2)c(=O)c2cc([N+](=O)[O-])ccc12 | GI50 | < 10 nM |
| COc1cc2c3c(n(C)c(=O)c2cc1OC)-c1cc2c(cc1/C3=C/[C@H](N)CCCCN)OCO2 | GI50 | 4720 nM |
| CN1C(=O)C(c2c[nH]c3ccccc23)=C(c2c(-c3c[nH]c4ccccc34)[nH]c3ccccc23)C1=O | GI50 | 1890 nM |

Any idea what its GI50 is? The molecule is CC(=O)OC12CC(C)C3(O)C4C=C(C)C(=O)[C@@]4(O)CC(CO)=C[C@H]3C1C2(C)C (some centres undefined)
346 nM
